Source: ChEMBL document CHEMBL1811866

# measured-target: Transcriptional activator protein LasR (Pseudomonas aeruginosa (strain ATCC 15692 / PAO1 / 1C / PRS 101 / LMG12228)) (UniProt P25084)
# Sequence (P25084 whole entry): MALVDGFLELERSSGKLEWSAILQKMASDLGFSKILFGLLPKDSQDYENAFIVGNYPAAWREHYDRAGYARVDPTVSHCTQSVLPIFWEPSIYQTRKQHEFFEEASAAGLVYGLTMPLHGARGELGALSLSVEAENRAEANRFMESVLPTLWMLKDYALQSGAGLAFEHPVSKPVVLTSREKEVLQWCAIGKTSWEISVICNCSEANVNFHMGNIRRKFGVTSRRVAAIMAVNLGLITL
# measurement-description: Agonist activity at Pseudomonas aeruginosa PAO1 MW1 (pUM15) LasR assessed as activation of quorum sensing at 10 uM relative to N-(3-oxo)-dodecanoyl HL
# Assay type: functional
Known Activity of a selection of compounds
Numbers only here, please. The scale is %.

CCCCCCCCCC(=O)CC(=O)Nc1cc(-c2ccc(Cl)cc2)nn1C
0

# return recorded Activity for input CCOC(=O)CNC(=O)Cc1ccc(Br)cc1 0

Fill in Activity for record CCCCCCCCCC(=O)CC(=O)NCC(=O)OCC 12

Give me measured Activity, please, for this compound: CCCCCCCCCC(=O)CC(=O)NCCC(c1ccccc1)c1ccccc1 0

Identify Activity associated with the compound CCCCCCCCCC(=O)CC(=O)NCc1ccc(OC)c(OC)c1 0

Report measured Activity; entry is CCCCCCCCCC(=O)CC(=O)NCCc1ccccc1 0

Complete the entry with Activity for CCCCCCCCCC(=O)CC(=O)NCc1ccccc1F 0

Please list Activity recorded for the compound CCCCCCCCCC(=O)CC(=O)NCc1cccc([N+](=O)[O-])c1 0

Assign Activity to the following record: CCOC(=O)CNC(=O)Cc1ccc(SC(F)(F)F)cc1 0

----------
# measured-target: UniProt P33905
# Sequence (P33905 whole entry): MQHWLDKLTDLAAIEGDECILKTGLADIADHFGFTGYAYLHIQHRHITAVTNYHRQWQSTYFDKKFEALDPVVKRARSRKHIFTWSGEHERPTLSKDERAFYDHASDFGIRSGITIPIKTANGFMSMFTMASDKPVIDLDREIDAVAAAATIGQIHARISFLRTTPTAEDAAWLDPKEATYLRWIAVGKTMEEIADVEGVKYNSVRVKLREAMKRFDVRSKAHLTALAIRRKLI
# measurement-description: Antagonist activity at Agrobacterium tumefaciens WCF (pCF372) TraR assessed as inhibition of OOHL-induced quorum sensing activation at 10 uM relative to untreated control
# Assay type: functional
recorded-metric: inhibition (%)
State the answer as a number, implicitly in %.

CCCCCCCCCC(=O)CC(=O)N[C@@H](C)C(=O)OC
-4
CCCCCCCCCC(=O)CC(=O)NCc1ccc(OC)cc1
-8
CCCCCCCCCC(=O)CC(=O)NCCC(c1ccccc1)c1ccccc1
-6
CCCCCCCCCC(=O)CC(=O)NCc1ccc(OC)c(OC)c1
-10
CCCCCCCCCC(=O)CC(=O)NC1CCCC1
-3

Here is the next item to consider.
Read off the recorded inhibition for CCCCCCCCCC(=O)CC(=O)NCCc1ccccc1 -4

----------
# measured-target: Transcriptional activator protein LasR (Pseudomonas aeruginosa (strain ATCC 15692 / PAO1 / 1C / PRS 101 / LMG12228))
# measurement-description: Antagonist activity at Pseudomonas aeruginosa PAO1 MW1 (pUM15) LasR assessed as inhibition of N-(3-oxo)-dodecanoyl HL-induced quorum sensing activation at 10 uM relative to untreated control
# Format: functional
# key: entry, value: inhibition
Expressed in %, but write only the number.

O=C(Cc1ccc(Br)cc1)Nc1ccccc1
12
O=C(Cc1cccc([N+](=O)[O-])c1)Nc1ccccc1
0
CCCCCCCCCC(=O)CC(=O)NCc1ccc(OC)c(OC)c1
9
CCCCCCCCCC(=O)CC(=O)Nc1cc(-c2ccc(Cl)cc2)nn1C
0
CCCCCCCCCC(=O)Nc1ccccc1
5
CCOC(=O)CNC(=O)CCc1ccc(OC)cc1
-6
O=C(Cc1ccccc1)NC1CCCC1
1
CCCCCCCCCC(=O)CC(=O)NC1CCCC1
-1
CCOC(=O)CNC(=O)CCc1ccc(Cl)cc1
-5
CCCCCCCCCC(=O)CC(=O)NCc1c(F)cccc1F
5

// Input: CCCCCCCCCC(=O)CC(=O)NCC(=O)OCC . Output its inhibition only. 11

For the compound CCCCCCCCCC(=O)CC(=O)N[C@@H](C)C(=O)OC , report inhibition. 23

Indicate the recorded inhibition value for this compound: CCCCCCCCCC(=O)CC(=O)NCCc1ccccc1 5
